// values below are reported MIC
Tested on: Staphylococcus aureus
test_description: MIC test, standard agar dilution method
measurement_conditions: UC9213, read-out: Minimum Inhibitory Concentrations (MIC) S. aureus
Only the number, expressed in µg/mL, is required.

Illustrative cases are given below, each with its answer.
>>> df
                                   compound  property_label  experimental_result
0  CC(=O)NC[C@H]1CN(c2ccc(N3CCC4(CC3)OCCN4C(=O)CO)c(F)c2)C(=O)O1             MIC                   16
1  CC(=O)CC1CCN(c2ccc(N3C[C@H](CNC(C)=O)OC3=O)cc2F)CC1             MIC                    8
2  COC(=O)NN=C1CCN(c2ccc(N3C[C@H](CNC(C)=O)OC3=O)cc2F)CC1             MIC                    2
3  COC(=O)NC1CCN(c2ccc(N3C[C@H](CNC(C)=O)OC3=O)cc2F)CC1             MIC                    4
4  CC(=O)NC[C@H]1CN(c2ccc(N3CCC(NC(=O)CO)CC3)c(F)c2)C(=O)O1             MIC                   16
5  CC(=O)NC[C@H]1CN(c2ccc(N3CCC(=NNC(N)=O)CC3)c(F)c2)C(=O)O1             MIC                    2
6  CC(=O)NC[C@H]1CN(c2ccc(N3CCC(=O)C(CO)C3)c(F)c2)C(=O)O1 (some centres unmarked)             MIC                    8
7  CC(=O)NC[C@H]1CN(c2ccc(N3CCC(CC4(C)OCCO4)CC3)c(F)c2)C(=O)O1             MIC                   16

Using the record for CC(=O)NC[C@H]1CN(c2ccc(N3CCC(NC(C)=O)CC3)c(F)c2)C(=O)O1 , report its MIC.
16

Using the record for CC(=O)NC[C@H]1CN(c2ccc(N3CCC(=O)CC3)c(F)c2)C(=O)O1 , report its MIC.
2

Using the record for CC(=O)NC[C@H]1CN(c2ccc(N3CCC(=NN)CC3)c(F)c2)C(=O)O1 , report its MIC.
2

###

Test system: Staphylococcus aureus
test_description: MIC test, standard agar dilution method
measurement_conditions: UC9213, read-out: Minimum Inhibitory Concentrations (MIC) S. aureus
property_label: MIC (µg/mL)
Only the number, expressed in µg/mL, is required.

Illustrative cases are given below, each with its answer.
>>> df
                                   compound          system_tested  experimental_result
0  CC(=O)NC[C@H]1CN(c2ccc(N3CCC(C4(C)OCCO4)CC3)c(F)c2)C(=O)O1 [Compound No. 35]  Staphylococcus aureus                    8
1  CON=C1CCN(c2ccc(N3C[C@H](CNC(C)=O)OC3=O)cc2F)CC1 [Compound No. 29]  Staphylococcus aureus                    4
2  CC(=O)NC[C@H]1CN(c2ccc(N3CCC(CO)CC3)c(F)c2)C(=O)O1 [Compound No. 4]  Staphylococcus aureus                    8
3  CC(=O)NC[C@H]1CN(c2ccc(N3CCC(=NOC(=O)COC(C)=O)CC3)c(F)c2)C(=O)O1 [compound 43]  Staphylococcus aureus                    4
4  CC(=O)NC[C@H]1CN(c2ccc(N3CCC4(CC3)OCCO4)c(F)c2)C(=O)O1 [compound 28]  Staphylococcus aureus                    8
5  CC(=O)NC[C@H]1CN(c2ccc(N3CCC(Nc4nccs4)CC3)c(F)c2)C(=O)O1 [Compound No. 63]  Staphylococcus aureus                   16

Proceed to the following item.
Query the reported MIC for Staphylococcus aureus; item: COC(=O)ON=C1CCN(c2ccc(N3C[C@H](CNC(C)=O)OC3=O)cc2F)CC1 [compound 38]
2

###

System: Staphylococcus aureus
test_description: MIC test, standard agar dilution method
measurement_conditions: UC9213, read-out: Minimum Inhibitory Concentrations (MIC) S. aureus
// values below are reported MIC
Only the number, expressed in µg/mL, is required.

Using the record for CN[C@H](CC(C)C)C(=O)N[C@H]1C(=O)N[C@@H](CC(N)=O)C(=O)N[C@H]2C(=O)N[C@H]3C(=O)N[C@H](C(=O)N[C@H](C(=O)O)c4cc(O)cc(O)c4-c4cc3ccc4O)[C@H](O)c3ccc(c(Cl)c3)Oc3cc2cc(c3O[C@@H]2O[C@H](CO)[C@@H](O)[C@H](O)[C@H]2O[C@H]2C[C@](C)(N)[C@H](O)[C@H](C)O2)Oc2ccc(cc2Cl)[C@H]1O [Vancomycin, reference compound] , report its MIC.
1

Using the record for COCOC1CCN(c2ccc(N3C[C@H](CNC(C)=O)OC3=O)cc2F)CC1 , report its MIC.
8

Using the record for CONC1CCN(c2ccc(N3C[C@H](CNC(C)=O)OC3=O)cc2F)CC1 , report its MIC.
4

Using the record for COCOCC1COC2(CCN(c3ccc(N4C[C@H](CNC(C)=O)OC4=O)cc3F)CC2)O1 (stereo partly drawn) , report its MIC.
16

Using the record for COC(=O)[C@H]1CN(c2ccc(N3CC(CNC(C)=O)OC3=O)cc2F)CCC1=O (stereo partly drawn) , report its MIC.
16

Using the record for CCOC(=O)CC(=O)NN=C1CCN(c2ccc(N3C[C@H](CNC(C)=O)OC3=O)cc2F)CC1 , report its MIC.
4

###

Test system: Staphylococcus aureus
test_description: MIC test, standard agar dilution method
measurement_conditions: UC9213, read-out: Minimum Inhibitory Concentrations (MIC) S. aureus
// values below are reported MIC
Only the number, expressed in µg/mL, is required.

Illustrative cases are given below, each with its answer.
>>> df
                                   compound  property_label  experimental_result
0  CC(=O)NC[C@H]1CN(c2ccc(N3CCC(=NOC(=O)COCc4ccccc4)CC3)c(F)c2)C(=O)O1 [compound 45]             MIC                    2
1  COCOCCON=C1CCN(c2ccc(N3C[C@H](CNC(C)=O)OC3=O)cc2F)CC1 [compound 53]             MIC                   16
2  CC(=O)NC[C@H]1CN(c2ccc(N3CCC(NC(=O)OCOC(C)=O)CC3)c(F)c2)C(=O)O1 [compound 65]             MIC                    8
3  CC(=O)NC[C@H]1CN(c2ccc(N3CCC(=NN4CCOCC4)CC3)c(F)c2)C(=O)O1 [compound 40]             MIC                    4
4  CC(=O)NC[C@H]1CN(c2ccc(N3CCC4(CC3)OCC(CO)O4)c(F)c2)C(=O)O1 (stereo partly drawn) [Compound No. 52]             MIC                   16

Using the record for CC(=O)NC[C@H]1CN(c2ccc(N3CCC(=NNCCO)CC3)c(F)c2)C(=O)O1 [compound 41] , report its MIC.
4

Using the record for CC(=O)NC[C@H]1CN(c2ccc(N3CCC(=Nn4cnnc4)CC3)c(F)c2)C(=O)O1 [compound 51] , report its MIC.
4

Using the record for CC(=O)NC[C@H]1CN(c2ccc(N3CCC(=NOCCO)CC3)c(F)c2)C(=O)O1 [compound 48] , report its MIC.
8

Using the record for CC(=O)NC[C@H]1CN(c2ccc(N3CCC(C4(CO)OCCO4)CC3)c(F)c2)C(=O)O1 [Compound No. 44] , report its MIC.
16

Using the record for CC(=O)NC[C@H]1CN(c2ccc(N3CCC(O)CC3)c(F)c2)C(=O)O1 [Compound No. 3] , report its MIC.
8

Using the record for CC(=O)NC[C@H]1CN(c2ccc(N3CCC(N(C)C)CC3)c(F)c2)C(=O)O1 [Compound No. 67] , report its MIC.
32

Using the record for COCCNC1CCN(c2ccc(N3C[C@H](CNC(C)=O)OC3=O)cc2F)CC1 [compound 64] , report its MIC.
32

Using the record for CC(=O)NC[C@H]1CN(c2ccc(N3CCC(=NNC(=N)N)CC3)c(F)c2)C(=O)O1 [compound 42] , report its MIC.
8

Using the record for COC(=O)CON=C1CCN(c2ccc(N3C[C@H](CNC(C)=O)OC3=O)cc2F)CC1 [compound 47] , report its MIC.
8

Using the record for COCON=C1CCN(c2ccc(N3C[C@H](CNC(C)=O)OC3=O)cc2F)CC1 [compound 60] , report its MIC.
8

###

System: Staphylococcus aureus
test_description: MIC test, standard agar dilution method
measurement_conditions: UC9213, read-out: Minimum Inhibitory Concentrations (MIC) S. aureus
property_label: MIC (µg/mL)
Only the number, expressed in µg/mL, is required.

>>> print(df.to_string())
                                   molecule  quantity_unit  experimental_result
0  C=CCON=C1CCN(c2ccc(N3C[C@H](CNC(C)=O)OC3=O)cc2F)CC1          µg/mL                    8

Using the record for CC(=O)NC[C@H]1CN(c2ccc(N3CCC(=NOCC(O)CO)CC3)c(F)c2)C(=O)O1 (stereo partly drawn) , report its MIC.
8

Using the record for CC(=O)NC[C@H]1CN(c2ccc(N3CCC(=NNC(=O)CO)CC3)c(F)c2)C(=O)O1 , report its MIC.
16

Using the record for CC(=O)NC[C@H]1CN(c2ccc(N3CCC(=NN4CCN(CCO)CC4)CC3)c(F)c2)C(=O)O1 , report its MIC.
4

Using the record for CC(=O)NC[C@H]1CN(c2ccc(N3CCC(=NO)CC3)c(F)c2)C(=O)O1 , report its MIC.
2

Using the record for CC(=O)NC[C@H]1CN(c2ccc(N3CCC(C(C)=O)CC3)c(F)c2)C(=O)O1 , report its MIC.
4
